# tested_on: Lethal factor protease (Bacillus anthracis, UniProt P15917)
# Sequence (P15917 34-809 limits assumed): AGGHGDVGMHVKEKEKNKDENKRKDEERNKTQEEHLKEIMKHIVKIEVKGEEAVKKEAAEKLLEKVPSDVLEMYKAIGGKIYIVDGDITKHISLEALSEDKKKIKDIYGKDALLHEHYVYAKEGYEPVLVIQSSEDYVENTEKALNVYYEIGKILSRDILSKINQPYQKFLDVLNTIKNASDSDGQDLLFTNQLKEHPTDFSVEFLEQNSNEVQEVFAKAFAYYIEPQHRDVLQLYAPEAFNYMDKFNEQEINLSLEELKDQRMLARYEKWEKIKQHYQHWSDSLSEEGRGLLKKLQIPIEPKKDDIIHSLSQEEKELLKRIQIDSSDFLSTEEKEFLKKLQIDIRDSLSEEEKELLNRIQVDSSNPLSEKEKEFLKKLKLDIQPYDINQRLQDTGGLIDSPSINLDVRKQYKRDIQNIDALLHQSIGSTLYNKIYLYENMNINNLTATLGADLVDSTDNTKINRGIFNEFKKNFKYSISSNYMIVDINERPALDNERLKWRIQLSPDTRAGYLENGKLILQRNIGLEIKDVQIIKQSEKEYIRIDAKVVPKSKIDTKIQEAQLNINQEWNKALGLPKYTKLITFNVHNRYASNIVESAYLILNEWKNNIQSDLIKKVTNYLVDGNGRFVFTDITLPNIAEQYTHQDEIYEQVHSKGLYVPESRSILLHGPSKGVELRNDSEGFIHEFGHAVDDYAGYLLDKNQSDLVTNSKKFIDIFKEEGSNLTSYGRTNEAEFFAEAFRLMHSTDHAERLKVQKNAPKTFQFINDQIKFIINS
pKi: −log10 of the molar value.
The label depends only on pKi: fulfilled if it is at least 5, not fulfilled if it is smaller.

compound	category_label
CO[C@H](C[C@H](CCN1CCC(F)(F)CC1)C(=O)NO)c1ccc(F)cc1	fulfilled
COC(CCC(=O)NO)c1ccc(-c2ccccc2)cc1 (stereo not drawn)	not fulfilled
COC(CC(Cc1ccccc1)C(=O)NO)c1ccc(F)cc1 (stereo not drawn) [Compound 167285]	not fulfilled
COC(CCC(=O)NO)c1cccc(C)c1C (stereo not drawn)	not fulfilled
CO[C@H](C[C@H](CCN(C)c1cccc(-c2ccc(F)c(C)c2)c1)C(=O)NO)c1ccc(F)cc1	not fulfilled
CO[C@@H](CCC(=O)NO)c1ccc(F)cc1	not fulfilled
CO[C@H](C[C@H](CCN(C)CCCc1ccccc1)C(=O)NO)c1ccc(F)cc1	fulfilled
CO[C@H](C[C@H](C/C=C/C(c1ccccc1)c1ccccc1)C(=O)NO)c1ccc(F)cc1	not fulfilled

Let's switch to this compound now.
-- ask Check the entry CO[C@H](C[C@H](CCCCNCc1cccs1)C(=O)NO)c1ccc(F)cc1 : does pKi equal or exceed 5?
-- reply fulfilled

* * *

Entries and their Ki values follow.
# tested_on: Lethal factor protease (Bacillus anthracis)
Answer with a number only, understood to be in nM.

Reference set, count: 3
compound	meas_value
COC(CC(Cc1ccccc1)C(=O)NO)c1ccc(F)cc1 (stereo not drawn) [Compound 167286]	168000
CO[C@H](C[C@H](CCCCNCC1CCCCC1)C(=O)NO)c1ccc(F)cc1 [Compound 168227]	690
CSC(CCC(=O)NO)c1ccc(F)cc1 (racemic) [Compound 167366]	10900

-- ask # input compound: CO[C@H](C[C@H](CCN(C)Cc1ccc(F)cc1)C(=O)NO)c1ccc(F)cc1 [Compound 167795] ; wanted: its Ki
-- reply 2100

-- ask Next compound up: CO[C@H](C[C@H](CCN1CCc2ccccc2C1)C(=O)NO)c1ccc(F)cc1 [Compound 167891]
-- reply 920

-- ask Also need O=C(CCC(OCc1ccccc1)c1ccc(F)cc1)NO (racemic) [Compound 167151] , thanks.
-- reply 130000

-- ask Same read-out for CO[C@H](C[C@H](CCN(C)CCO)C(=O)NO)c1ccc(F)cc1 [Compound 167922] ?
-- reply 1490

-- ask Please give the result for COC(CCC(=O)NO)c1ccccc1F (stereo not drawn) [Compound 167564] too.
-- reply 52400

-- ask Request: CO[C@H](C[C@H](CCN1CCCC1)C(=O)NO)c1ccc(F)cc1 [Compound 167923]
-- reply 970

* * *

# tested_on: Lethal factor protease (Bacillus anthracis)
pKi: −log10 of the molar value.
The threshold is inclusive: pKi of exactly 6 counts as Satisfied; values below receive Not satisfied.

compound	tested_on	category_label
COC(CCC(=O)NO)c1ccc(C)c(F)c1 (stereo not drawn) [Compound 167463]	Lethal factor protease (Bacillus anthracis)	Not satisfied
CO[C@H](C[C@H](CCN(C)Cc1ccccc1)C(=O)NO)c1ccc(F)cc1 [Compound 167785]	Lethal factor protease (Bacillus anthracis)	Not satisfied
CO[C@H](C[C@H](CCCCN1CCN(Cc2ccccc2)CC1)C(=O)NO)c1ccc(F)cc1 [Compound 168226]	Lethal factor protease (Bacillus anthracis)	Satisfied
CO[C@H](C[C@H](CCCCNCCCc1ccc(F)cc1)C(=O)NO)c1ccc(F)cc1 [Compound 168222]	Lethal factor protease (Bacillus anthracis)	Satisfied
CO[C@H](C[C@H](CCN(C)CCOc1ccccc1)C(=O)NO)c1ccc(F)cc1 [Compound 167890]	Lethal factor protease (Bacillus anthracis)	Not satisfied

-- ask Determine whether measured pKi meets or exceeds 6 for COC(CC(CCc1ccccc1)C(=O)NO)c1ccc(F)cc1 (stereo not drawn) [Compound 167308]
-- reply Not satisfied

-- ask Do the same for CO[C@H](C[C@H](CCN(C)c1ccc(Br)cc1)C(=O)NO)c1ccc(F)cc1 [Compound 168013] please
-- reply Not satisfied

-- ask Please answer likewise for CO[C@H](C[C@H](CCN1CCC[C@H](CN2CCCCC2)C1)C(=O)NO)c1ccc(F)cc1 [Compound 168044]
-- reply Not satisfied

-- ask Repeat for the following compound: CO[C@H](C[C@H](CCN1CCC[C@H](CO)C1)C(=O)NO)c1ccc(F)cc1 [Compound 168039]
-- reply Satisfied
